Molecular target: PARP1 L713F-nLuc biosensor (HCT116)
Assay: PARP1 L713F-nLuc/akaLuc ratio relative to DMSO control (biosensor stabilization) (fold change); higher = more PARP1 biosensor stabilization (target engagement / stabilizer), active = hit call of the paper
Conditions: stock concentration (mM; final µM = stock mM x 1): 10; 24 h
The following molecules are shown together with reported PARP1 L713F-nLuc/akaLuc ratio values.

Please review the following examples before continuing.
INSERT INTO measurements (molecule, target_system, reported_value) VALUES
  ('O=C(O)CC[C@H](O)C(=O)O [L-2-Hydroxyglutaric acid (disodium)]', 'PARP1 L713F-nLuc biosensor (HCT116)', '1.2 (inactive)'),
  ('COc1cc(OC)cc(-c2noc(N3CCN(C)C4(CCN(c5ccnc(C)c5)CC4)C3)n2)c1', 'PARP1 L713F-nLuc biosensor (HCT116)', '0.971 (inactive)'),
  ('CC1=C2C(=O)O[C@@H](c3ccoc3)[C@]2(C)CCC1', 'PARP1 L713F-nLuc biosensor (HCT116)', '0.831 (inactive)'),
  ('O=C(O)c1cnn(-c2nc3cc(OC(F)(F)F)c(Cl)cc3[nH]2)c1', 'PARP1 L713F-nLuc biosensor (HCT116)', '0.757 (inactive)'),
  ('Nc1ccn([C@@H]2O[C@H](CO)[C@@H](O)C2(F)F)c(=O)n1', 'PARP1 L713F-nLuc biosensor (HCT116)', '0.416 (inactive)'),
  ('CNC(=O)c1ccc2cc([C@@]3(O)CCn4cncc43)ccc2c1', 'PARP1 L713F-nLuc biosensor (HCT116)', '0.776 (inactive)'),
  ('CC(=O)NCC(=O)N1[C@@H]2CC[C@H]1c1ccc(Nc3ncc(C(F)(F)F)c(NC4CCC4)n3)cc12', 'PARP1 L713F-nLuc biosensor (HCT116)', '1.27 (inactive)'),
  ('COc1cccc2c1c(O)c(C(=O)N(C)c1ccc(C(F)(F)F)cc1)c(=O)n2C', 'PARP1 L713F-nLuc biosensor (HCT116)', '1.12 (inactive)'),
  ('Cc1cc(C)nc(SCC(=O)Nc2ncc(Cc3cccc4ccccc34)s2)n1', 'PARP1 L713F-nLuc biosensor (HCT116)', '0.926 (inactive)'),
  ('CC1(C)NC(=O)N(c2ccc([N+](=O)[O-])c(C(F)(F)F)c2)C1=O [Nilutamide]', 'PARP1 L713F-nLuc biosensor (HCT116)', '0.772 (inactive)');

Please find the next molecule below.
Input CC(C)=CCC/C(C)=C/Cc1c(O)c(CC=C(C)C)c2c(c1O)C(=O)C1=C[C@@H]3C[C@H]4C(C)(C)O[C@@](C/C=C(/C)C(=O)O)(C3=O)[C@@]14O2 . Output PARP1 L713F-nLuc/akaLuc ratio: 1.04 (inactive)

Cited source for all entries: the supplement of paper PMC11624193
